biological target: Pro-neuregulin-1, membrane-bound isoform (Homo sapiens); assay: NRG1 binders on small-molecule microarrays, primary screen, psychiatric disease protein project, biochemical, small-molecule microarray, fluorescence 635/667 (AID 1075); conditions: NRG1 binding, 635 nm fluorescence, higher = more signal;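 note: score combines 667 nm spot fluorescence with signal to noise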
composite z-score values for the compounds below.
Write the number on its own, no unit after it.

For orientation, consider the following solved cases.
structure	experimental_system	recorded_metric	measurement
CC(C)C[C@@H]1NC(=O)[C@@H]2C[C@H](C(=O)NCc3ccc(F)cc3)[C@H](c3cccc(OCCO)c3)N2C1=O	Pro-neuregulin-1, membrane-bound isoform (Homo sapiens)	composite z-score	-0.0212
CCCCCCc1nc(-c2ccc(OC)nc2)cc2c1[Si](C(C)C)(C(C)C)O[C@H]2c1ccccc1	Pro-neuregulin-1, membrane-bound isoform (Homo sapiens)	composite z-score	-0.384
COc1cc2c(cc1OC)CN(C(=O)[C@@H]1[C@H]3C(=O)O[C@H](c4ccccc4)[C@H](c4ccccc4)N3[C@H](c3ccc(O)cc3)[C@@]13C(=O)Nc1ccccc13)CC2	Pro-neuregulin-1, membrane-bound isoform (Homo sapiens)	composite z-score	1.03
COC(=O)[C@@]1(Cc2ccc(OC)cc2)[C@H]2c3cc(C(=O)N(C)C)n(Cc4ccccn4)c3C[C@H]2CN1C(=O)c1ccccc1	Pro-neuregulin-1, membrane-bound isoform (Homo sapiens)	composite z-score	2.35
CC(C)C(=C=CC[C@H](O)c1ccc(OCCO)cc1)CCO	Pro-neuregulin-1, membrane-bound isoform (Homo sapiens)	composite z-score	1.69
CC(=O)NCCCC[C@@H]1NC(=O)[C@H]2C[C@@H](C(=O)NCCCCCCNC(=O)CS)[C@@H](c3ccc(O)cc3)N2C1=O	Pro-neuregulin-1, membrane-bound isoform (Homo sapiens)	composite z-score	0.824
O=C1N(Cc2ccccc2)c2ccccc2[C@@H]2OC(c3ccc(OCCCO)cc3)=N[C@]12CCS(=O)(=O)c1ccccc1	Pro-neuregulin-1, membrane-bound isoform (Homo sapiens)	composite z-score	1.03

The record that follows has no composite z-score shown yet.
// map COCCOC(=O)N1C(=O)[C@@]2(c3cc(C#CCCO)ccc31)[C@H](C(=O)N1CCCCCCC1)[C@H]1C(=O)O[C@H](c3ccccc3)[C@H](c3ccccc3)N1[C@@H]2c1ccc(OCCO)cc1 to recorded composite z-score (system: Pro-neuregulin-1, membrane-bound isoform (Homo sapiens))
1.01

---

test: P. aeruginosa biofilm formation inhibitors, primary screen, strain PAO1, LB-PBS medium, absorbance 600 nm (AID 1176); note: test concentration not given here; details: P. aeruginosa PAO1 growth/biofilm, A600, 12 h; higher = more signal
Classification field: YES = z-score at or over 0.3; NO = z-score under 0.3.

compound	class_label
CC(C)CNC(=O)[C@@]1(Cc2ccccc2I)c2ccccc2C(=O)N(C2CCCCC2)[C@H]1c1ccc(CO)cc1	YES
C=CCOC(=O)[C@@H]1[C@H]2C(=O)O[C@H](c3ccccc3)[C@H](c3ccccc3)N2[C@H](c2ccc(OCCOC(=O)[C@@H]3C[C@@H]4C(=O)NCC(=O)N4[C@@H]3c3ccc(O)cc3)cc2)[C@@]12C(=O)Nc1ccc(I)cc12	NO
C=CCNC(=O)[C@@H]1[C@H]2C(=O)O[C@H](c3ccccc3)[C@H](c3ccccc3)N2[C@H](c2ccc(O)cc2)[C@@]12C(=O)N(C(=O)OCCOC)c1ccc(C#CCNC(N)=O)cc12	YES

Read the next record carefully.
Tell me whether z-score is at least 0.3 here: CC(C)C[C@@H]1NC(=O)[C@@H]2C[C@H](C(=O)O)[C@H](c3cccc(OCCO)c3)N2C1=O
NO

Taken from PubChem BioAssay.
